Method summary: Plasma BBR in pseudo germ-free versus conventional rats after oral BBR
Format: in vivo
Recorded conditions: male, SD, rat, 200 mg/kg, conventional SD rat, oral BBR 200 mg/kg
Endpoint name: Cmax (ng/mL)
The reply should be a number in ng/mL, with the unit left off.

Lab note: `COc1ccc2cc3[n+](cc2c1OC)CCc1cc2c(cc1-3)OCO2` gave Cmax of 26

###

Method summary: Plasma concentration of BBR in KK-Ay mice treated or untreated with antibiotics
Assay type: in vivo
Recorded conditions: KK-Ay, mouse, plasma, oral, 200 mg/kg, day 14, mice without antibiotics (Group 2), BBR 200 mg/kg qd
Endpoint name: Cmax at 14 day
Answer format: value, then unit.

Lab note: COc1ccc2cc3[n+](cc2c1OC)CCc1cc2c(cc1-3)OCO2 [BBR, berberine] gave Cmax at 14 day of 178 ng/mL
